Cited source for all entries: patent US10787465B2

- Tested on: HeLa cells
- experiment: MTT cell cytotoxicity assay, HeLa
- Format: cell-based, Human
- details: Incubation time = 24 hours
property: pIC50
Notebook: values listed as pIC50 are -log10 of the concentration (mol/L).

Any idea what its pIC50 is? The molecule is CC(C)(C)NC(=O)CN1CCN(CC(=O)NC(C)(C)C)CCN(Cc2cc(C#Cc3ccc(NC(=O)c4ccc(C(F)(F)F)cc4)cc3)ccn2)CCN(CC(=O)NC(C)(C)C)CC1.O.[Cl-].[Cl-].[Cl-].[Eu+3] [HGEu002]
3.38

###

- Tested on: MRC-5 cells
- experiment: MTT cell cytotoxicity assay, MRC-5
- Assay type: cell-based, Human
- details: Incubation time = 24 hours
property: pIC50
Notebook: values listed as pIC50 are -log10 of the concentration (mol/L).

Any idea what its pIC50 is? The compound is "CC(C)(C)NC(=O)CN1CCN(CC(=O)NC(C)(C)C)CCN(Cc2cc(C#Cc3ccc(NC(=O)c4ccc(C(F)(F)F)cc4)cc3)ccn2)CCN(CC(=O)NC(C)(C)C)CC1.O.[Cl-].[Cl-].[Cl-].[Eu+3]"
3.40
